Target: T1, MutS (Escherichia coli, UniProt P23909 1-853)
T1 sequence: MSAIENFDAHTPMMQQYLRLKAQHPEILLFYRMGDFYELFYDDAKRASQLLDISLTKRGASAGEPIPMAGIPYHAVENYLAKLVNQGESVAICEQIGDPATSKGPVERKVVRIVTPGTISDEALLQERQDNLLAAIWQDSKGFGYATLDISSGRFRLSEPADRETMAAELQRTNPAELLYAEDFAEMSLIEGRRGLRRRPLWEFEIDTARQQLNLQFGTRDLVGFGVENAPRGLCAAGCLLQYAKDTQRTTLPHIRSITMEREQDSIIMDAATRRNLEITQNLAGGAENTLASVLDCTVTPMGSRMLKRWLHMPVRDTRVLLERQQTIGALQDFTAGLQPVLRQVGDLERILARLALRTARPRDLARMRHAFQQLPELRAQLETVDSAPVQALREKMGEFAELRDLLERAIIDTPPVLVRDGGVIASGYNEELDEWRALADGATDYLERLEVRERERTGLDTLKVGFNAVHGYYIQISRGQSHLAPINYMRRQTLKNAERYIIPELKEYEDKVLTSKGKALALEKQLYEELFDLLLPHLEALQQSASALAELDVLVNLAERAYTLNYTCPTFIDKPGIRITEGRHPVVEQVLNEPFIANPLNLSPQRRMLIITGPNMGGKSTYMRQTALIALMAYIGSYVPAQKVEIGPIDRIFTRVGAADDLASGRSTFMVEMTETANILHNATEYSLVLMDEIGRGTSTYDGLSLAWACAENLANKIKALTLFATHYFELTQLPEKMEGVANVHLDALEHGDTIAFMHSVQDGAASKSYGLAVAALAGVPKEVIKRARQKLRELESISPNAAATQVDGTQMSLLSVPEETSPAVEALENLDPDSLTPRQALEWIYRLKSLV
Experiment: EMSA (Scatchard); 1 mM ADP, 5 mM Mg2+; EMSA: 20 mM HEPES pH 8.0, 125 mM KCl, 1 mM ADP, 5 mM MgCl2, 1 mg/ml BSA, 9% glycerol, 37 C 20 min (gel at 4 C); fluorescence: 25 mM Tris-HCl pH 7.5, 125 mM KCl, 5 mM MgCl2, 1 mM ADP, 20 C
Settings: protein: recombinant; tags: His-tag (Ni-NTA purified); chain copies: 2; label: 5'-32P; blunt; G/T mismatch strand 1 G24 : strand 2 T7
pKd: −log10 of the molar value.
QUANTITY: pKd

1. duplex II (G/T) (dsDNA) DNA 1: CAAGCCTATGCCCTCAGCACCCAGGGTGCC DNA 2: GGCACCTTGGGTGCTGAGGGCATAGGCTTG :: 8.15

Values were extracted from paper PMC4136841.
